test: Acute toxicity in Wister rats (Lichtfield and Wilcoxon); settings: in vivo, ip; rat, endoperitoneal, mortality within 8 days; read-out: DL50 and range
endpointLabel: LD50 at 192 h (mg/kg)
Kindly provide the numeric value in mg/kg only, without the unit symbol.

Task: I am curious: what LD50 at 192 h value has been reported for CCCC(CCC)C(=O)OCOC(=O)C(C)(C)C [PEV, pivaloyloxymethyl 2-propyl-pentanoate] ?
Output: 608

###

assay: Acute toxicity in Wister rats (Lichtfield and Wilcoxon); settings: in vivo; rat, oral, mortality within 8 days; read-out: DL50 and range
endpointLabel: LD50 at 192 h (mg/kg)
Kindly provide the numeric value in mg/kg only, without the unit symbol.

Task: I am curious: what LD50 at 192 h value has been reported for CCCC(CCC)C(=O)OCOC(=O)C(C)(C)C [PEV, pivaloyloxymethyl 2-propyl-pentanoate] ?
Output: 1440
